- assay remarks: chemical genetic growth profiling, strain panel (AID 1159580);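 also: tested at 20 µM; growth read once vehicle control cultures reached saturation at 30 °C; 1 = growth at the plate median or of vehicle wells; lower values mean less growth of the strain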
- test settings: S. cerevisiae deletion strains, growth OD, locus YNL071W, strain lat1
Hit rate of the full screen: of about 5,500 compounds, about 2,000 (36%) were called active. About 18% were inconclusive and are not listed. Rule as the data show it: active = normalized growth mostly below about 0.91 (no sharp cut-off); inconclusive = no clear call, values can overlap the other calls; inactive = mostly above about 0.92. The list shows a part of the results.
Outcome (select one): TRUE (active), FALSE (inactive)

In this assay, the call recorded for O=C(OCc1ccccc1)c1ccccc1 was what?
TRUE

Identify the outcome logged in this assay for the compound shown: CN(C)CCCN1c2ccccc2CCc2ccccc21
FALSE

Given CCOC(=O)[C@H](CCc1ccccc1)N[C@@H](C)C(=O)N1CCC[C@H]1C(=O)O , state the outcome it received in this test.
FALSE

Please let me know the test result on file for Cc1nc(N)cc(C[n+]2csc(CCO)c2C)n1 .
FALSE

Which result was noted for this compound in the test: NCC(N)C(=O)c1ccccc1 (centres undefined)
FALSE

Just curious, what result did COC1CC2CCC(C)C(O)(O2)C(=O)C(=O)N2CCCCC2C(=O)OC(C(C)CC2CCC(O)C(OC)C2)CC(=O)C(C)/C=C(\C)C(O)C(OC)C(=O)C(C)CC(C)/C=C/C=C/C=C/1C (centres undefined) get here?
TRUE

Field: outcome | Entry: CC(Cc1cccc(C(F)(F)F)c1)NCCOC(=O)c1ccccc1 (centres undefined)
FALSE

Test call, this compound: NCC(=O)c1ccccc1
FALSE

Short answer needed: outcome of this test for CCCN(CCC)S(=O)(=O)c1ccc(C(=O)O)cc1 ?
FALSE

Could you please tell me the result logged for NC(=O)NC(=O)Cc1ccccc1 in this assay?
FALSE

Which outcome did this test record for the compound CN(C)CCCN1c2ccccc2Sc2ccc(Cl)cc21 ?
TRUE

Hi, do you know how O=C(O)c1cccnc1 came out in this test?
FALSE

Hi, do you know how N[C@@H](CCC(=O)N[C@@H](CS)C(=O)NCC(=O)O)C(=O)O came out in this test?
FALSE

Please let me know the test result on file for CN(C)CCCN1c2ccccc2Sc2ccccc21 .
FALSE

Entry CC12CCC(=O)C=C1CCC1C2[C@@H](O)CC2(C)C1CC[C@]2(O)C(=O)COP(=O)(O)O (some centres undefined) : call = ?
FALSE

Query: recorded result category for CC(C)NCC(O)COc1ccc(COCCOC(C)C)cc1 (centres undefined) in this test
FALSE

Short answer needed: outcome of this test for NC(=O)c1cccnc1 ?
FALSE

Kindly provide the recorded test outcome for the following compound: O=C(CC(=O)c1ccccc1)c1ccccc1
TRUE

Just curious, what result did CC1=CCCC2C1(C)CCC(C)C2(C)CC/C(C)=C/C[n+]1cn(C)c2c(N)ncnc21 (centres undefined) get here?
TRUE

Tell me the recorded outcome of this test for CC(CCC(=O)O)[C@H]1CCC2C3C(=O)C[C@@H]4CC(=O)CC[C@]4(C)C3CC(=O)[C@@]21C (some centres undefined) .
FALSE

Any idea what this test logged for Cc1cc(=O)[nH]c(=S)[nH]1 ?
FALSE

// param item: COc1ccc(C2Sc3ccccc3N(CCN(C)C)C(=O)C2OC(C)=O)cc1 (centres undefined) ; yields the recorded call
FALSE

What is the recorded call for this compound in the test? Nc1ccc(S(=O)(=O)NC(=O)c2ccccc2)cc1
FALSE

Give the logged outcome of this assay for the following compound: NC(Cn1ccc(=O)c(O)c1)C(=O)O (centres undefined)
FALSE

====

- assay remarks: chemical genetic growth profiling, strain panel (AID 1159580);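 also: tested at 20 µM; growth read once vehicle control cultures reached saturation at 30 °C; 1 = growth at the plate median or of vehicle wells; lower values mean less growth of the strain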
- test settings: S. cerevisiae deletion strains, growth OD, locus YNL224C, strain SQS1
In all, about 5,500 compounds went through this assay and about 2,000 (36%) were called active. Roughly 18% stayed inconclusive and do not appear here. Rule as the data show it: active = normalized growth mostly below about 0.91 (no sharp cut-off); inconclusive = no clear call, values can overlap the other calls; inactive = mostly above about 0.92. The list shows a part of the results.
Select the matching outcome among active, inactive

Lab log entry: C[N+]1(C)CCC(OC(=O)C(c2ccccc2)c2ccccc2)CC1 — outcome as called in the assay?
inactive

For this compound, state the assay outcome: C[N+]1(C)CCN(c2ccccc2)CC1
inactive

Name the outcome recorded for CCN1CCCC1CNC(=O)c1cc(S(N)(=O)=O)ccc1OC (stereo unspecified) in the assay.
inactive

Name the outcome recorded for CC(CCc1ccccc1)NCC(O)c1ccc(O)c(C(N)=O)c1 (stereo unspecified) in the assay.
inactive

Record request — test call for CN(C)CCCN1c2ccccc2Sc2ccc(C(F)(F)F)cc21
inactive

Record request — test call for Cc1[nH]c2ccc(O)cc2c1CCN
inactive

Answer briefly: the call reported for Cc1cccc(C)c1OCC(N)C(C)C (stereo unspecified) in this assay.
inactive

How did this test come out for Cc1cn[nH]c1 ?
inactive

For C[C@]12C=CC(=O)C=C1CC[C@@H]1C2=CC[C@]2(C)[C@@H](C(=O)CN3CCN(c4cc(N5CCCC5)nc(N5CCCC5)n4)CC3)CC[C@@H]12 , which call appears in the assay record?
inactive

Dear all, I need the recorded test outcome for CCN(CC)CCOCCOC(=O)C1(c2ccccc2)CCCC1 , thank you.
inactive

For CCN(CC)CCOC(=O)C1(C2CCCCC2)CCCCC1 , what call appears in the results of this test?
inactive

For CN(C)CCC(c1ccc(Cl)cc1)c1ccccn1 (stereo unspecified) , what call appears in the results of this test?
inactive

Please state the recorded outcome for this compound: Nc1ncnc2c1ncn2C1CCCO1 (stereo unspecified)
inactive

Which outcome was entered for the compound CS(=O)(=O)Nc1ccc([N+](=O)[O-])cc1Oc1ccccc1 in this test?
inactive

Which result was noted for this compound in the test: CN(C)CCCN1c2ccccc2Sc2ccccc21
inactive

Answer briefly: the call reported for C=C/C(C)=C/[C@@]1(C)SC(=O)C(C)=C1O in this assay.
inactive

How was O=P1(N(CCCl)CCCl)NCCCO1 (stereo unspecified) classified in this test?
inactive

Just curious, what result did CN=C(NC#N)Nc1ccc(C2=NNC(=O)CC2C)cc1 (stereo unspecified) get here?
inactive

# fetch the recorded call for CN(C)CCCN1c2ccccc2Sc2ccc(Cl)cc21 here
inactive

So what was the verdict on CCC(=O)c1ccc2c(c1)N(CCCN(C)C)c1ccccc1S2 in this test?
inactive

What call does the record list for NCCNS(=O)(=O)c1cccc2cnccc12 ?
inactive

// outcome(item) with item = CCCN(CCc1ccccc1)C1CCc2c(O)cccc2C1 (stereo unspecified)
inactive

Dear colleague, could you share the recorded outcome for Cc1scc2c1N(C(=O)CN1CCN(C)CC1)c1ccccc1NC2=O when you have a moment?
inactive

Short answer needed: outcome of this test for CC(N=C(NC#N)Nc1ccncc1)C(C)(C)C (stereo unspecified) ?
inactive

Kindly provide the recorded test outcome for the following compound: O=C1NC(O)=NC1(c1ccccc1)c1ccccc1
inactive

Dear all, I need the recorded test outcome for O=C1c2ccccc2-c2n[nH]c3cccc1c23 , thank you.
active

====

- assay remarks: chemical genetic growth profiling, strain panel (AID 1159580);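 also: tested at 20 µM; growth read once vehicle control cultures reached saturation at 30 °C; 1 = growth at the plate median or of vehicle wells; lower values mean less growth of the strain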
- test settings: S. cerevisiae deletion strains, growth OD, locus YJR066W, strain TOR1 (second series), stronger effect = lower value
The whole screen tested about 5,500 compounds, of which about 2,000 (36%) were called active. Roughly 18% stayed inconclusive and do not appear here. This is one part of the list.
measure name: normalized growth

Looking up OC(COc1ccc(F)cc1)(c1ccc(Cl)cc1)c1ccc(Cl)cc1 , I see its normalized growth listed as 0.971 (inactive)

# normalized growth of N/C(Cc1cccc2ccccc12)=N/OC(=O)c1ccc(Cl)cc1 = 0.879 (inactive)

compound CSc1sc(C(=O)Sc2ccccc2)cc1S(=O)(=O)C(C)C , normalized growth observed: 0.971 (inactive)

The compound listed as O=S(=O)(Oc1ccc(-c2csnn2)cc1)c1ccccc1Cl shows normalized growth equal to 0.909 (inactive)

Looking up CC(C)(C)c1cc(C(=O)NNc2cccc(Cl)c2)n(Cc2ccccc2)n1 , I see its normalized growth listed as 0.884 (inactive)

====

Please go through the items and note down their normalized growth.
- assay remarks: chemical genetic growth profiling, strain panel (AID 1159580);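 also: tested at 20 µM; growth read once vehicle control cultures reached saturation at 30 °C; 1 = growth at the plate median or of vehicle wells; lower values mean less growth of the strain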
- test settings: S. cerevisiae deletion strains, growth OD, locus YLR058C, strain SHM2, stronger effect = lower value
Screen size: about 5,500 compounds; about 2,000 (36%) were called active. About 18% were inconclusive and are not listed. The list shows a part of the results.
Returns: the value as a bare number; no unit string appended.

// normalized growth lookup, molecule = Oc1cccc(O)c1 , result: 1.01

Field normalized growth (entry CC(N=C(NC#N)Nc1ccncc1)C(C)(C)C (configuration not stated) ) reads 1.01

normalized growth reported for this molecule CC(=O)N[C@@H](Cc1c[nH]c2ccccc12)C(N)=O : 0.993

The molecule identified as CC[N+](C)(C)c1cccc(O)c1 registered its normalized growth at 0.982

According to the records, this molecule N=C(N)N displays normalized growth of 0.999

Consider NNCc1cccc(O)c1 . Its measured normalized growth is 0.994

// normalized growth lookup, molecule = CN[C@@H]1[C@H](O)[C@H](NC)[C@H]2O[C@@]3(O)C(=O)C[C@@H](C)O[C@H]3O[C@@H]2[C@H]1O , result: 1.01
